Values from ChEMBL document CHEMBL3120070

System: Mycobacterium tuberculosis
Assay: Antimycobacterial activity against Mycobacterium tuberculosis H37Rv assessed as growth inhibition by Alamar Blue staining-based broth microdilution assay
Format: functional, organism-based
observable: MIC90 (µM)
Output spec: scalar in µM, unitless text.

{"columns": ["compound", "tgt", "MIC90, µM"],
 "data": [
  ["O=C(C1CC1)C(c1ccccc1F)N1C(=O)S/C(=C\\c2cccs2)C1=O (centres undefined)", "Mycobacterium tuberculosis", 25],
  ["O=C(C1CC1)C(c1ccccc1F)N1C(=O)S/C(=C\\c2c[nH]c3ccccc23)C1=O (centres undefined)", "Mycobacterium tuberculosis", 25],
  ["O=C(C1CC1)C(c1ccccc1F)N1C(=O)S/C(=C\\c2ccc(O)c(O)c2)C1=O (centres undefined)", "Mycobacterium tuberculosis", 25]
]}

# ---- query compound ----
Please give the measured MIC90 for this compound: O=C(C1CC1)C(c1ccccc1F)N1C(=O)S/C(=C\c2ccccc2)C1=O (centres undefined)
50
